- system under test: human IGF1R cytoplasmic domain (Homo sapiens)
- Construct: The human IGF1R cytoplasmic domain was cloned; made in house; host or cells: SF21 insect cells (baculovirus)
- assay protocol: IGF1R autophosphorylation inhibition, time resolved fluorescence (HTRF) assay
- Format: biochemical
- conditions used: 10 μM; read-out: IGF1R % inhib at 10 μM
observable: inhibition at 10 µM (%)

COc1cccc(-c2n[nH]c3ccc(NS(=O)(=O)c4ccccc4S(C)(=O)=O)cc23)c1 [Example 178] | 67
COc1ccc(-c2n[nH]c3ccc(NS(=O)(=O)c4ccccc4S(C)(=O)=O)cc23)cc1OC [Example 198] | 76
CS(=O)(=O)c1ccccc1S(=O)(=O)Nc1ccc2[nH]nc(-c3cccnc3)c2c1 [Example 59] | 88

(I) CS(=O)(=O)c1ccccc1S(=O)(=O)Nc1ccc2[nH]nc(-c3ccc(O)cc3)c2c1 [Example 202]
(II) CS(=O)(=O)c1ccccc1S(=O)(=O)Nc1ccc2[nH]nc(-c3ccccc3Cl)c2c1 [Example 187]
Problem: Please indicate which entry, I or II , has the lower recorded inhibition at 10 µM value. # respond with the chosen item's label
Result: II
(II: 52%, I: 83%)

(P) C=Cc1ccc(-c2n[nH]c3ccc(NS(=O)(=O)c4ccccc4S(C)(=O)=O)cc23)cc1 [Example 185]
(Q) CN(C)c1cccc2c(S(=O)(=O)Nc3cccc(-c4n[nH]c5ccc(NS(=O)(=O)c6ccccc6S(C)(=O)=O)cc45)c3)cccc12 [Example 166]
(R) Nc1n[nH]c2ccc(NS(=O)(=O)c3c(F)cccc3F)cc12 [Example 40]
Problem: Please produce an ascending ranking of these compounds based on inhibition at 10 µM. Your reply should list the labels following the order given in the request.
Result: R, Q, P

----------
- system under test: human FAK (Homo sapiens)
- Construct: The complete cDNA of human FAK; made in house; host or cells: baculovirus expression system (vector pFastBac HTc)
- assay protocol: FAK autophosphorylation inhibition, time resolved fluorescence (HTRF) assay
- Assay type: biochemical
- conditions used: 10 μM (values without asterisk); read-out: FAK % inhib at 10 μM
observable: inhibition at 10 µM (%)

CS(=O)(=O)c1ccccc1S(=O)(=O)Nc1ccc2[nH]nc(C#Cc3ccccc3)c2c1 [Example 89] | 92
Cc1ccc(-c2n[nH]c3ccc(NS(=O)(=O)c4ccccc4S(C)(=O)=O)cc23)cc1F [Example 224] | 91
CS(=O)(=O)c1ccccc1S(=O)(=O)Nc1ccc2[nH]nc(-c3cccc(C(F)(F)F)c3)c2c1 [Example 175] | 90
CSc1ccc(-c2n[nH]c3ccc(NS(=O)(=O)c4ccccc4S(C)(=O)=O)cc23)cc1 [Example 172] | 92

----------
- system under test: human IGF1R cytoplasmic domain (Homo sapiens, UniProt P08069)
- Construct: The human IGF1R cytoplasmic domain was cloned; made in house; host or cells: SF21 insect cells (baculovirus)
- Sequence (P08069 960-1367 limits assumed): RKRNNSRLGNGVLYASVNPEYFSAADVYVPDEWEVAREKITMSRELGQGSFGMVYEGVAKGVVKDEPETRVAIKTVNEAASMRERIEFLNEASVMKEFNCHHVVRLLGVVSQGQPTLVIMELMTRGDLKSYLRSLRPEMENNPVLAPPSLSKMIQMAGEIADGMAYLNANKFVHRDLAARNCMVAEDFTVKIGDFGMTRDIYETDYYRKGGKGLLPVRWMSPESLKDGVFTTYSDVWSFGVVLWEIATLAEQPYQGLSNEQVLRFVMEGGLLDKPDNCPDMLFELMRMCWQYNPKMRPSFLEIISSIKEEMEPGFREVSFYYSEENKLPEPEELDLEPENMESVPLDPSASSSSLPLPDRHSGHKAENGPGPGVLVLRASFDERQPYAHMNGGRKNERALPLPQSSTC
- assay protocol: IGF1R autophosphorylation inhibition, time resolved fluorescence (HTRF) assay
- Format: biochemical
- conditions used: 10 μM; read-out: IGF1R % inhib at 10 μM
- Method: The inhibitory activity of the compounds on IGF1R is determined by measuring the inhibition of the autophosphorylation of the enzyme using a time resolved fluorescence (HTRF) assay. […] The kinase activity was determined by incubating the enzyme with various concentrations of test compound in a 50 mM Hepes buffer, pH 7.5, containing 5 mM MnCl2, 50 mM NaCl, 3% glycerol, 0.025% Tween 20 and 120 mM of ATP. […]
observable: inhibition at 10 µM (%)

Below, 2 compounds whose answers are already recorded.
CC(=O)Nc1n[nH]c2ccc(NS(=O)(=O)c3ccccc3S(C)(=O)=O)cc12 | 96
Cc1ccc(-c2n[nH]c3ccc(NS(=O)(=O)c4ccccc4S(C)(=O)=O)cc23)cc1 | 66

(P) Cc1cccc(S(=O)(=O)Nc2ccc3[nH]nc(-c4ccccc4)c3c2)c1
(Q) COc1ccc(-c2n[nH]c3ccc(NS(=O)(=O)c4ccccc4S(C)(=O)=O)cc23)c(OC)c1
Problem: Given the listed items, does P or Q have the lesser reported inhibition at 10 µM? State the label of the item chosen.
Result: Q
(Q: 27%, P: 72%)

----------
- system under test: human FAK (Homo sapiens, UniProt Q05397)
- Construct: The complete cDNA of human FAK; made in house; host or cells: baculovirus expression system (vector pFastBac HTc)
- Sequence (Q05397 whole entry): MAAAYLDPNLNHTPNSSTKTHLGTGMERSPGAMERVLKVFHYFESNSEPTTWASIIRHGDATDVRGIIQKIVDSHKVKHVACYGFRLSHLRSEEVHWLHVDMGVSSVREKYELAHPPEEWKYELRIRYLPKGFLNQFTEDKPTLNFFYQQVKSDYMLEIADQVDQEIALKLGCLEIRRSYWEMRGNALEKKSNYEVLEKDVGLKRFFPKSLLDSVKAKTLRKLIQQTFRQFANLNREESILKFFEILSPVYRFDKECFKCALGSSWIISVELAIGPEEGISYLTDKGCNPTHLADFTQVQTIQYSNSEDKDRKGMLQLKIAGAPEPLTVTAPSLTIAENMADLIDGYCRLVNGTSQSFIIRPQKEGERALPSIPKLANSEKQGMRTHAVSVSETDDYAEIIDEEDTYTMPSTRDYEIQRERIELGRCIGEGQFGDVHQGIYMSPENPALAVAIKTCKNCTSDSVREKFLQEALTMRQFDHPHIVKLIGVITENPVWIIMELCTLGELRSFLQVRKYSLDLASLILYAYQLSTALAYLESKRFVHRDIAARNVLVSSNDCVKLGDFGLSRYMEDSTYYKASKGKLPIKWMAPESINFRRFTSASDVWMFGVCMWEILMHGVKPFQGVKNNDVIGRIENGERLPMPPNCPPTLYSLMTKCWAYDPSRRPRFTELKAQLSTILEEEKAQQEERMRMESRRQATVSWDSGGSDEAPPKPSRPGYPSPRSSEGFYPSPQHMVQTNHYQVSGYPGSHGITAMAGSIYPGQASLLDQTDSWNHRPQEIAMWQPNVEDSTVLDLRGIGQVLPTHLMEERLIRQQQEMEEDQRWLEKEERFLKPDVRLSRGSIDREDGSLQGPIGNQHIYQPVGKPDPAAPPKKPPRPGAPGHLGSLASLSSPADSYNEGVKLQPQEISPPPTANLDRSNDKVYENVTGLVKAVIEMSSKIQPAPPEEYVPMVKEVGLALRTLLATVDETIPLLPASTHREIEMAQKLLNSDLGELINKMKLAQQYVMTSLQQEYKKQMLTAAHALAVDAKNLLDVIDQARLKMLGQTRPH
- assay protocol: FAK autophosphorylation inhibition, time resolved fluorescence (HTRF) assay
- Assay type: biochemical
- conditions used: 10 μM (values without asterisk); read-out: FAK % inhib at 10 μM
observable: inhibition at 10 µM (%)

Known inhibition at 10 µM results, listed for orientation:
CS(=O)(=O)c1ccccc1S(=O)(=O)Nc1ccc2[nH]nc(-c3ccc(F)c(F)c3)c2c1 [Example 192] | 90
O=S(=O)(Nc1ccc2[nH]nc(-c3ccccc3)c2c1)C1CCNCC1 [Example 100] | 94
CS(=O)(=O)c1ccccc1S(=O)(=O)Nc1ccc2[nH]nc(-c3cccc(F)c3F)c2c1 [Example 221] | 94

(P) CCOc1cccc(-c2n[nH]c3ccc(NS(=O)(=O)c4ccccc4S(C)(=O)=O)cc23)c1 [Example 186]
(Q) CC(=O)Nc1ccc(S(=O)(=O)Nc2ccc3[nH]nc(-c4ccccc4)c3c2)cc1Cl [Example 146]
(R) O=S(=O)(Nc1ccc2[nH]nc(-c3ccccc3)c2c1)c1ccccc1OC(F)(F)F [Example 142]
(S) O=S(=O)(Nc1ccc2[nH]nc(-c3ccccc3)c2c1)c1ccc(OC(F)(F)F)cc1 [Example 160]
(T) N#Cc1ccc(S(=O)(=O)Nc2ccc3[nH]nc(-c4ccccc4)c3c2)cc1 [Example 143]
Problem: Sort ascending by inhibition at 10 µM. Return the labels ranked in the requested order, please.
Result: S, Q, T, R, P
(S: 3%, Q: 14%, T: 23%, R: 40%, P: 94%)

----------
- system under test: human KDR enzyme (Homo sapiens, UniProt P35968)
- Construct: The cytoplasmic domain of the human KDR enzyme; GST; made in house; host or cells: SF21 insect cells (baculovirus)
- Sequence (P35968 786-1356 limits assumed): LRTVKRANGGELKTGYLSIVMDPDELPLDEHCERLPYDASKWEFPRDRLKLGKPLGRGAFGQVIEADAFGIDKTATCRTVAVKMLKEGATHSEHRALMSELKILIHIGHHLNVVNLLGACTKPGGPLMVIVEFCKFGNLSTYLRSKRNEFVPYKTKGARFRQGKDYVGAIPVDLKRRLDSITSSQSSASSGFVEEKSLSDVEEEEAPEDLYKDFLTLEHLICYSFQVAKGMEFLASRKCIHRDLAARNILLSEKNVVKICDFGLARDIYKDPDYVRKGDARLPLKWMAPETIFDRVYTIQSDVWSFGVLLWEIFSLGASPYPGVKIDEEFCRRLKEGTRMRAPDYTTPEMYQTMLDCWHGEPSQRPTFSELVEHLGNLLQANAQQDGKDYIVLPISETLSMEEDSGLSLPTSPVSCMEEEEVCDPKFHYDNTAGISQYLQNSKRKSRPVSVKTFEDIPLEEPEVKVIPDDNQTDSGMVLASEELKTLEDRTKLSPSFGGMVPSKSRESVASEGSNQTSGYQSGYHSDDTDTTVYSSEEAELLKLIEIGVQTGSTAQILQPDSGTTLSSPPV
- assay protocol: KDR substrate (PLCγ) phosphorylation, scintillation assay
- Assay type: biochemical
- conditions used: 10 μM; read-out: KDR % inhib at 10 μM
observable: inhibition at 10 µM (%)

These solved cases illustrate the format of a correct answer.
O=S(=O)(Nc1ccc2[nH]nc(-c3ccccc3)c2c1)c1cccc2nonc12 | 57
O=S(=O)(Nc1ccc2[nH]nc(-c3ccccc3)c2c1)c1ccc2ccccc2c1 | 72
CC(=O)Nc1ccccc1-c1n[nH]c2ccc(NS(=O)(=O)c3cccc(F)c3)cc12 | 25
CS(=O)(=O)c1ccccc1S(=O)(=O)Nc1ccc2[nH]nc(/C=C/c3ccc(Cl)cc3)c2c1 | 92
CS(=O)(=O)c1ccccc1S(=O)(=O)Nc1ccc2[nH]nc(-c3ccc(N)cc3)c2c1 | 71

(A) CS(=O)(=O)c1ccccc1S(=O)(=O)Nc1ccc2[nH]nc(-c3ccc(Cl)cc3Cl)c2c1
(B) CS(=O)(=O)c1ccccc1S(=O)(=O)Nc1ccc2[nH]nc(-c3ccc([N+](=O)[O-])cc3)c2c1
(C) O=S(=O)(Nc1ccc2[nH]nc(-c3ccccc3)c2c1)c1cccc(Br)c1
(D) CS(=O)(=O)c1ccccc1S(=O)(=O)Nc1ccc2[nH]nc(Cl)c2c1
(E) CS(=O)(=O)c1ccccc1S(=O)(=O)Nc1ccc2[nH]nc(-c3ccccc3-c3ccccc3)c2c1
Problem: Rank the 5 compounds: largest inhibition at 10 µM first, smallest last. Hello, could you send the labels back in the order asked? Thank you.
Result: C, A, E, B, D

(1) CS(=O)(=O)c1ccccc1S(=O)(=O)Nc1ccc2[nH]nc(-c3cccc(Br)c3)c2c1
(2) CCOc1ccccc1-c1n[nH]c2ccc(NS(=O)(=O)c3ccccc3S(C)(=O)=O)cc12
Problem: From the recorded data, which exceeds the other in inhibition at 10 µM: 1 or 2 ? Refer to your chosen entry by its label in the reply.
Result: 1
(1: 61%, 2: 20%)

----------
- system under test: human IGF1R cytoplasmic domain (Homo sapiens)
- Construct: The human IGF1R cytoplasmic domain was cloned; made in house; host or cells: SF21 insect cells (baculovirus)
- assay protocol: IGF1R autophosphorylation inhibition, time resolved fluorescence (HTRF) assay
- Assay type: biochemical
- conditions used: 10 μM; read-out: IGF1R % inhib at 10 μM
observable: inhibition at 10 µM (%)

CC(=O)Nc1ccc(S(=O)(=O)Nc2ccc3[nH]nc(-c4ccccc4)c3c2)cc1 | 73
CS(=O)(=O)c1ccccc1S(=O)(=O)Nc1ccc2[nH]nc(-c3ccc(F)c(Cl)c3)c2c1 | 77
CS(=O)(=O)c1ccccc1S(=O)(=O)Nc1ccc2[nH]nc(-c3ccc(Oc4ccccc4)cc3)c2c1 | 20

(P) COC(=O)c1cccc(-c2n[nH]c3ccc(NS(=O)(=O)c4ccccc4S(C)(=O)=O)cc23)c1
(Q) O=S(=O)(Nc1ccc2[nH]nc(-c3ccccc3)c2c1)c1cccc2cccnc12
Problem: Compare inhibition at 10 µM: is it lower for P or for Q ? Please respond with the label that marks your chosen entry.
Result: P
(P: 64%, Q: 99%)

(1) CS(=O)(=O)c1ccccc1S(=O)(=O)Nc1ccc2[nH]nc(-c3ccc(F)cc3F)c2c1
(2) Nc1n[nH]c2ccc(NS(=O)(=O)c3cccc(F)c3)cc12
Problem: When the recorded inhibition at 10 µM values are compared, which is smaller: that of 1 or that of 2 ? Answer with the label corresponding to your selection.
Result: 2
(2: 34%, 1: 83%)
